# Measurement Target: HLA-C*07:01 (Homo sapiens, UniProt P10321, K90N/S123Y)
# Assay type: binding
# Condition Details: percent relative the binding of positive control peptide […]; duplicated experiments; positive binder >40%
Bind C*07:01 strictly less than 5% = True. Otherwise False.

| Substance | Classification |
| --- | --- |
| LAMGDAGGY | True |
| GLSIVMPVG | True |

Exercise: Check if Bind C*07:01 falls below 5% for RAVKPT GSA .
Key: False

Exercise: Check if Bind C*07:01 falls below 5% for "PAVYLLDGL" .
Key: False

Exercise: Check if Bind C*07:01 falls below 5% for "ALLDPSQGM" .
Key: False

Exercise: Check if Bind C*07:01 falls below 5% for "VMPVGGQSS" .
Key: True

Exercise: Check if Bind C*07:01 falls below 5% for KLVANNT RL .
Key: False

Exercise: Check if Bind C*07:01 falls below 5% for NNTRLW VYC .
Key: False

====

# Measurement Target: HLA-A*30:02 (Homo sapiens, UniProt P04439, D101N/D140H/D185E/E176R/F33S/G80R/H175R/K168Q/Q94H/R138E/R41S/V100E)
# Type: binding
Attribute: Aff A*30:02 (ED50)
Reply with just the number (in M).

Would you please look over these solved cases?
| Substance | Assay Endpoint | Unit Annotation | Experimental Result |
| --- | --- | --- | --- |
| AMLDHAGDM [Rv0288_10–18m2] | Aff A*30:02 (ED50) | M | 7e-07 |
| VFNFPPNGT | Aff A*30:02 (ED50) | M | 3e-05 |
| NLKFQDAYN | Aff A*30:02 (ED50) | M | 1e-05 |
| ANNTRLWVY | Aff A*30:02 (ED50) | M | 2e-08 |
| DHAGDMAGY [Rv0288_13–21m1] | Aff A*30:02 (ED50) | M | 1e-08 |

Exercise: I have this substance here, LVANNT RLW , and I need its recorded Aff A*30:02 (ED50).
Key: 5e-07

Exercise: I have this substance here, MYNYPAMLD [Rv0288_5–13m2] , and I need its recorded Aff A*30:02 (ED50).
Key: 2e-06

====

# Measurement Target: HLA-A*24:02 (Homo sapiens, UniProt P04439, D101N/D140Y/D185E/E176V/E190D/F33S/G103R/G107R/I119L/I121M/I306V/K335N/L105A/L180Q/L300P/N151K/N90K/Q86E/Q94H/R106L/R138H/R89G/T104I/T345S/V100E/W191G/Y123F)
# Type: binding
Assay Endpoint: Aff A*24:02 (ED50) (M)
Reply with just the number (in M).

| Sequence Content | Assay Endpoint | Experimental Result |
| --- | --- | --- |
| YWGAQLNAM | Aff A*24:02 (ED50) | 8e-09 |
| MYNYPTMLG [Rv0288_5–13m1] | Aff A*24:02 (ED50) | 2e-07 |
| YAGSLSALL | Aff A*24:02 (ED50) | 1e-06 |

# evaluate next
Exercise: I have this sequence here, GYAGTLQNL [Rv0288_20–28m1] , and I need its recorded Aff A*24:02 (ED50).
Key: 1e-07

====

# Measurement Target: HLA-A*30:02 (Homo sapiens, UniProt P04439, D101N/D140H/D185E/E176R/F33S/G80R/H175R/K168Q/Q94H/R138E/R41S/V100E)
# Assay type: binding
# Condition Details: time points 0-8 h
Attribute: O-rate A*30:02 (t1/2)
Reply with just the number (in h).

Would you please look over these solved cases?
| Sequence Content | Assay Endpoint | Experimental Result |
| --- | --- | --- |
| AWGGSGSEA [Rv3875_42–50] | O-rate A*30:02 (t1/2) | 1.7 |
| QWLSANRAV | O-rate A*30:02 (t1/2) | 1.2 |
| SAMILAAYH | O-rate A*30:02 (t1/2) | 2.2 |

# evaluate next
Exercise: I have this sequence here, "FVRSSNLKF" , and I need its recorded O-rate A*30:02 (t1/2).
Key: 1.9

====

# Measurement Target: HLA-A*24:02 (Homo sapiens, UniProt P04439, D101N/D140Y/D185E/E176V/E190D/F33S/G103R/G107R/I119L/I121M/I306V/K335N/L105A/L180Q/L300P/N151K/N90K/Q86E/Q94H/R106L/R138H/R89G/T104I/T345S/V100E/W191G/Y123F)
# Type: binding
# Condition Details: percent relative the binding of positive control peptide […]; duplicated experiments; positive binder >40%
Assay Endpoint: Bind A*24:02
Note: a bare number is incomplete; add the unit.

| Substance | Assay Endpoint | Experimental Result |
| --- | --- | --- |
| QT YKWETFL | Bind A*24:02 | 110% |
| NTPAFEWYY | Bind A*24:02 | 0% |
| SAMILAAYH | Bind A*24:02 | 0% |
| SLIGLAMGD | Bind A*24:02 | 0% |
| KAGCQTYKW | Bind A*24:02 | 140% |

Exercise: I have this substance here, "VYCGNGTPN" , and I need its recorded Bind A*24:02.
Key: 11%

Exercise: I have this substance here, "SMAGSSAMI" , and I need its recorded Bind A*24:02.
Key: 52%

Exercise: I have this substance here, "QSGLSIVMP" , and I need its recorded Bind A*24:02.
Key: 0%

====

Attribute: Aff A*02:01 (ED50)
# Measurement Target: HLA-A*02:01 (Homo sapiens, UniProt P04439, D140Y/D185E/D98H/E176V/E277Q/G131W/G231S/I119V/I121R/I166T/I218V/L300P/L318F/N151K/N90K/P208A/P217A/Q86G/Q94H/R138H/R169H/T345S)
# Assay type: binding
# Condition Details: peptide titrated 10−4 to 10−9 M; peptide quantity for 50% binding saturation
Note: a bare number is incomplete; add the unit.

Would you please look over these solved cases?
| Sequence Content | Assay Endpoint | Experimental Result |
| --- | --- | --- |
| AMASTEGNV [Rv3875_82–90] | Aff A*02:01 (ED50) | 30 nM |
| LLDEGKQSL [Rv3875_28–36] | Aff A*02:01 (ED50) | 700 nM |
| ALQNLARTI [Rv3875_68–76] | Aff A*02:01 (ED50) | 30 nM |
| VQQKWDATA [Rv3875_54–62] | Aff A*02:01 (ED50) | 5 nM |
| IQGNVTSIH [Rv3875_18–26] | Aff A*02:01 (ED50) | 1000 nM |
| KLAAAWGGS [Rv3875_38-46] | Aff A*02:01 (ED50) | 100 nM |

# evaluate next
Exercise: I have this sequence here, NLARTISEA [Rv3875_71–79] , and I need its recorded Aff A*02:01 (ED50).
Key: 40 nM

====

# Measurement Target: HLA-A*30:01 (Homo sapiens, UniProt P04439, D140H/D185E/E176W/F33S/G80R/H175R/K168Q/R138E/R41S)
# Format: binding
# Condition Details: percent relative the binding of positive control peptide […]; duplicated experiments; positive binder >40%
Assay Endpoint: Bind A*30:01 (%)
Reply with just the number (in %).

Would you please look over these solved cases?
| Substance | Assay Endpoint | Unit Annotation | Experimental Result |
| --- | --- | --- | --- |
| ETFLTSELP | Bind A*30:01 | % | 4 |
| RAQDDYNGW | Bind A*30:01 | % | 11 |
| LAMGDAGGY | Bind A*30:01 | % | 0 |

Exercise: I have this substance here, "IPKLVANNT" , and I need its recorded Bind A*30:01.
Key: 5

Exercise: I have this substance here, "PSQGMGPSL" , and I need its recorded Bind A*30:01.
Key: 21

====

# Measurement Target: HLA-B*58:01 (Homo sapiens, UniProt P01889, A329T/C349S/D201E/D98Y/E176V/E187L/E204Q/E69T/G107R/I218V/I90N/K202T/L105A/L119I/N104I/N87E/Q89R/Q94S/R106L/R155S/R180L/R86G/S101N/S121R/S35A/S48A/T118I/V127L/V306I/V36M/Y140S/Y91M)
# Assay type: binding
# Condition Details: percent relative the binding of positive control peptide […]; duplicated experiments; positive binder >40%
Assay Endpoint: Bind B*58:01 (%)
Reply with just the number (in %).

Would you please look over these solved cases?
| Substance | Assay Endpoint | Experimental Result |
| --- | --- | --- |
| AMEDLVRAY [Rv0288_61–69] | Bind B*58:01 | 14 |
| GNNSPAVYL | Bind B*58:01 | 0 |

Exercise: I have this substance here, QAWQAQWNQ [Rv0288_52–60] , and I need its recorded Bind B*58:01.
Key: 45

Exercise: I have this substance here, "VYCGNGTPN" , and I need its recorded Bind B*58:01.
Key: 15

Exercise: I have this substance here, "NAMKGDLQS" , and I need its recorded Bind B*58:01.
Key: 0

Exercise: I have this substance here, "AVYLLDGLR" , and I need its recorded Bind B*58:01.
Key: 0

Exercise: I have this substance here, "GLSMAGSSA" , and I need its recorded Bind B*58:01.
Key: 0

Exercise: I have this substance here, NGT HSWEYW , and I need its recorded Bind B*58:01.
Key: 74

Exercise: I have this substance here, NGW DINTPA , and I need its recorded Bind B*58:01.
Key: 0

Exercise: I have this substance here, "GLSIVMPVG" , and I need its recorded Bind B*58:01.
Key: 0
